Ref: patent US20230312564A1

Assign Liver microsomal stability T1/2 to each entry below.
Test: Liver microsomal metabolic stability, rat
Format: in vitro ADME
Details: 0.5 mg/mL microsomes, 1 μM compound, NADPH
Give the value in min but do not write min after it.

**Query** Endpoint output: Liver microsomal stability T1/2 of C[C@H](C(=O)N[C@H](CO)c1cccc(Cl)c1)N1Cc2ccc(-c3ccnc(Nc4ccnn4C)c3)cc2C1=O [compound 2, reference compound] . Value?
**Result** 18

**Query** Note, next up: COc1cc(F)cc([C@@H](CO)NC(=O)[C@@H](C)N2Cc3ccc(-c4nc(NC5CCOCC5)ncc4Cl)c(F)c3C2=O)c1 [Embodiment 33]
**Result** 17

**Query** Note, next up: C[C@H](C(=O)N[C@H](CO)c1cccc(Cl)c1)N1Cc2ccc(-c3nc(NC4CCOCC4)ncc3F)c(F)c2C1=O [Embodiment 37]
**Result** 14

**Query** Note, next up: C[C@H](C(=O)N[C@H](CO)c1cccc(Cl)c1)N1Cc2ccc(-c3nc(NC4CCOCC4)ncc3Cl)c(F)c2C1=O [Embodiment 34]
**Result** 19

**Query** Note, next up: Cc1cccc([C@@H](CO)NC(=O)[C@@H](C)N2Cc3ccc(-c4nc(NC5CCOCC5)ncc4F)c(F)c3C2=O)c1 [Embodiment 31]
**Result** 17
